Target: CD28 (Homo sapiens, UniProt P10747)
Test: Jurkat/IL2 + CHO/OKT3 +/- PD-L1 reporter assay: PD-L1-dependent CD28 costimulation
Type: cell-based
Parameters: host or cells: Jurkat cells expressing an IL-2-luciferase reporter
Conditions: Table E21; Jurkat/IL2 + CHO/OKT3/PD-L1; CD80 Conc 5.0 nM
quantity: Relative Luciferase Units (RLU), CD80 Conc 5.0 nM
Write the number in RLU without appending the unit.

Lookup: Consider the molecule shown here: E35D/V68M/K89N (protein) VIHVTKEVKEVATLSCGHNVSVEELAQTRIYWQKDKKMVLTMMSGDMNIWPEYKNRTIFDITNNLSIMILALRPSDEGTYECVVLKYENDAFKREHLAEVTLSVKAD What is its recorded Relative Luciferase Units (RLU), CD80 Conc 5.0 nM?
Found: 537

Lookup: Check M47L (protein) VIHVTKEVKEVATLSCGHNVSVEELAQTRIYWQKEKKMVLTMMSGDLNIWPEYKNRTIFDITNNLSIVILALRPSDEGTYECVVLKYEKDAFKREHLAEVTLSVKAD too.
Found: 530

Lookup: Try this molecule next: M47V/V68M (protein) VIHVTKEVKEVATLSCGHNVSVEELAQTRIYWQKEKKMVLTMMSGDVNIWPEYKNRTIFDITNNLSIMILALRPSDEGTYECVVLKYEKDAFKREHLAEVTLSVKAD
Found: 553

Lookup: Would you mind doing E35D/D46V/M47V/V68M/K89N (protein) VIHVTKEVKEVATLSCGHNVSVEELAQTRIYWQKDKKMVLTMMSGVVNIWPEYKNRTIFDITNNLSIMILALRPSDEGTYECVVLKYENDAFKREHLAEVTLSVKAD as well?
Found: 817
